Biological target: α-amylase (EC.3.2.1.1) (Homo sapiens, UniProt P04746)
Sequence (P04746 16-511): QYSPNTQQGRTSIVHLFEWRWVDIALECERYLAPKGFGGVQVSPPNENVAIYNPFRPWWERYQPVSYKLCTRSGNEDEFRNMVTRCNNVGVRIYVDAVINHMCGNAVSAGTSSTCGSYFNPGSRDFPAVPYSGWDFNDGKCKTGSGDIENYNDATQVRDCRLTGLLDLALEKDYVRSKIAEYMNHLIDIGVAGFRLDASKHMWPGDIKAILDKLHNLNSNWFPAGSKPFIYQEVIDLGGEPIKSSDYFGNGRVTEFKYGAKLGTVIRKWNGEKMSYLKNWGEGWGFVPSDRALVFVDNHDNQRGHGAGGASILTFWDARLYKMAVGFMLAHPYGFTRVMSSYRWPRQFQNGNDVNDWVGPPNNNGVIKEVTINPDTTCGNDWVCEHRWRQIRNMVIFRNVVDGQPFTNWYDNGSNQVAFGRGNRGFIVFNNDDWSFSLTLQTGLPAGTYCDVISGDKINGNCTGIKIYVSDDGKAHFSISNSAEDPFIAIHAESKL
Test: In vitro α-amylase inhibition (starch/DNS, 540 nm)
Assay type: biochemical
Settings: 4 µg
Here the recorded α-Amylase Inhibition % is given for each entry.
Result Type: α-Amylase Inhibition % (%)

* COC(=O)/C=C/c1ccc(OC(=O)c2cccnc2)c(OC)c1 [Compound 2b] | 80.38
* O=C(Nc1ccc2c(c1)OCO2)c1cccnc1 [Compound 2j, N-(Benzo[1,3]dioxol-5-yl)nicotinamide] | 75.4
* CCOc1ccc2nc(NC(=O)c3cccnc3)sc2c1 [Compound 2k] | 74.52
* COc1cc(C(C)=O)ccc1OC(=O)c1cccnc1 [Compound 2i, 4-Acetyl-2-methoxyphenyl nicotinate] | 76.42
* O=C(Oc1ccc2c(c1)OCO2)c1cccnc1 [Compound 2h, Benzo[1,3]dioxol-5-yl nicotinate] | 73.2
* COC(=O)C=Cc1ccccc1OC(=O)c1cccnc1 [Compound 2g] | 73.64
* COC(=O)C=Cc1cccc(OC(=O)c2cccnc2)c1 [Compound 2f] | 77.89
* O=C(NCc1ccc2c(c1)OCO2)c1cccnc1 [Compound 2e] | 77.3
* C[C@H]1O[C@H](O[C@H]2[C@H](O)[C@@H](O)[C@@H](O[C@H]3[C@H](O)[C@@H](O)C(O)O[C@@H]3CO)O[C@@H]2CO)[C@H](O)[C@@H](O)[C@@H]1N[C@H]1C=C(CO)[C@@H](O)[C@H](O)[C@H]1O (stereo partly drawn) [Acarbose, reference compound] | 83.98
